measured on: Nluc-H1R (Homo sapiens, UniProt P35367)
Sequence (P35367 whole entry): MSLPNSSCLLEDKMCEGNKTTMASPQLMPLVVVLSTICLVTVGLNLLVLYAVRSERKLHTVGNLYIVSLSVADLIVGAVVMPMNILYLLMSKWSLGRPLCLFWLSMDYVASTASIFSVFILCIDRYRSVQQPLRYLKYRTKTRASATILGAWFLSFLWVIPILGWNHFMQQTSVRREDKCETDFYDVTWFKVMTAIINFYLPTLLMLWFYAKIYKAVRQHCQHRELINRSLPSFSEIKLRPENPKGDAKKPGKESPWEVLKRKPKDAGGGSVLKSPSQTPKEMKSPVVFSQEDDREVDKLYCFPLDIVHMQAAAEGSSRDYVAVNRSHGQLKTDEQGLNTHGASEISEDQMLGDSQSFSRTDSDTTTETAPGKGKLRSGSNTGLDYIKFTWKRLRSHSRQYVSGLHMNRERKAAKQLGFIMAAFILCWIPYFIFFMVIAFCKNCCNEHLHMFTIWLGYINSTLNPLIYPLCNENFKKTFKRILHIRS
assay notes: NanoBRET competition binding assay (displacement of 1) on Nluc-H1R expressing HEK293T cells
condition notes: displacement of 1 (25 nM, KD = 8 nM), whole HEK293T cells, Cheng–Prusoff
Square brackets hold non-standard residues; d marks the D form. Peptide text beside a SMILES is read from it. * marks the point of attachment. Propanoyl(3-Pip(4-O-2-BnPh)) = O=C(CCN1CCC(Oc2ccccc2Cc2ccccc2)CC1)*
quantity measured: Ki (nM)

{"molecule": "CC(C)[C@H](NC(=O)CCN1CCC(Oc2ccccc2Cc2ccccc2)CC1)C(=O)N[C@@H](CO)C(=O)N[C@@H](CCCCN)C(=O)N[C@H](Cc1ccccc1)C(N)=O [Compound 10h] ({Propanoyl(3-Pip(4-O-2-BnPh))}-VSK[dF]-NH2)", "measured on": "Nluc-H1R (Homo sapiens, UniProt P35367)", "Ki (nM)": 186}

a: CC(C)[C@H](NC(=O)CCN1CCC(Oc2ccccc2Cc2ccccc2)CC1)C(=O)N[C@@H](C)C(=O)N[C@@H](C)C(=O)N[C@H](Cc1ccccc1)C(N)=O [Compound 8c] ({Propanoyl(3-Pip(4-O-2-BnPh))}-VAA[dF]-NH2)
b: CC(C)[C@H](NC(=O)CCN1CCC(Oc2ccccc2Cc2ccccc2)CC1)C(=O)N[C@@H](CO)C(=O)N[C@H](C(=O)N[C@H](Cc1ccccc1)C(N)=O)C(C)C [Compound 10b] ({Propanoyl(3-Pip(4-O-2-BnPh))}-VSV[dF]-NH2)
c: CC(C)[C@H](NC(=O)CCN1CCC(Oc2ccccc2Cc2ccccc2)CC1)C(=O)N[C@@H](CCCCN)C(=O)N[C@@H](C)C(=O)N[C@H](Cc1ccccc1)C(N)=O [Compound 9h] ({Propanoyl(3-Pip(4-O-2-BnPh))}-VKA[dF]-NH2)
Please order the records by their reported Ki, lowest number first. Would you mind listing the labels in the order requested?
a, b, c
(a: 158 nM, b: 309 nM, c: 2400 nM)

====

measured on: Nluc-H1R (Homo sapiens, UniProt P35367)
assay notes: NanoBRET competition binding assay (displacement of 1) on Nluc-H1R expressing HEK293T cells
condition notes: displacement of 1 (25 nM, KD = 8 nM), whole HEK293T cells, Cheng–Prusoff; mean ± SEM, three experiments
Square brackets hold non-standard residues; d marks the D form. Peptide text beside a SMILES is read from it. * marks the point of attachment. Propanoyl(3-Pip(4-O-2-BnPh)) = O=C(CCN1CCC(Oc2ccccc2Cc2ccccc2)CC1)*
quantity measured: pKi

{"compound": "CC(C)[C@H](NC(=O)CCN1CCC(Oc2ccccc2Cc2ccccc2)CC1)C(=O)N[C@H](C(=O)N[C@@H](C)C(=O)N[C@H](Cc1ccccc1)C(N)=O)C(C)C [Compound 9b] ({Propanoyl(3-Pip(4-O-2-BnPh))}-VVA[dF]-NH2)", "pKi": 6.43}
{"compound": "CC(C)[C@H](NC(=O)CCN1CCC(Oc2ccccc2Cc2ccccc2)CC1)C(=O)N[C@@H](CO)C(=O)N[C@@H](Cc1ccccc1)C(=O)N[C@H](Cc1ccccc1)C(N)=O [Compound 10c] ({Propanoyl(3-Pip(4-O-2-BnPh))}-VSF[dF]-NH2)", "pKi": 6.96}
{"compound": "CC(C)[C@H](NC(=O)CCN1CCC(Oc2ccccc2Cc2ccccc2)CC1)C(=O)N[C@@H](CO)C(=O)N[C@@H](C)C(=O)N[C@H](Cc1ccccc1)C(N)=O [Compound 9e] ({Propanoyl(3-Pip(4-O-2-BnPh))}-VSA[dF]-NH2)", "pKi": 6.82}
{"compound": "CC(C)[C@H](NC(=O)CCN1CCC(Oc2ccccc2Cc2ccccc2)CC1)C(=O)N[C@@H](CO)C(=O)N[C@@H](CC(N)=O)C(=O)N[C@H](Cc1ccccc1)C(N)=O [Compound 10f] ({Propanoyl(3-Pip(4-O-2-BnPh))}-VSN[dF]-NH2)", "pKi": 7.02}
{"compound": "CC(C)[C@H](NC(=O)CCN1CCC(Oc2ccccc2Cc2ccccc2)CC1)C(=O)N[C@@H](CCCCN)C(=O)N[C@@H](C)C(=O)N[C@H](Cc1ccccc1)C(N)=O [Compound 9h] ({Propanoyl(3-Pip(4-O-2-BnPh))}-VKA[dF]-NH2)", "pKi": 5.62}
{"compound": "CC(C)[C@H](NC(=O)CCN1CCC(Oc2ccccc2Cc2ccccc2)CC1)C(=O)N[C@@H](Cc1ccc(O)cc1)C(=O)N[C@@H](C)C(=O)N[C@H](Cc1ccccc1)C(N)=O [Compound 9d] ({Propanoyl(3-Pip(4-O-2-BnPh))}-VYA[dF]-NH2)", "pKi": 6.36}
{"compound": "C[C@H](NC(=O)[C@H](C)NC(=O)[C@H](Cc1cnc[nH]1)NC(=O)CCN1CCC(Oc2ccccc2Cc2ccccc2)CC1)C(=O)N[C@H](Cc1ccccc1)C(N)=O [Compound 8h] ({Propanoyl(3-Pip(4-O-2-BnPh))}-HAA[dF]-NH2)", "pKi": 6.03}
{"compound": "CC(C)[C@H](NC(=O)CCN1CCC(Oc2ccccc2Cc2ccccc2)CC1)C(=O)N[C@@H](Cc1ccccc1)C(=O)N[C@@H](C)C(=O)N[C@H](Cc1ccccc1)C(N)=O [Compound 9c] ({Propanoyl(3-Pip(4-O-2-BnPh))}-VFA[dF]-NH2)", "pKi": 6.10}
{"compound": "CC(C)[C@H](NC(=O)CCN1CCC(Oc2ccccc2Cc2ccccc2)CC1)C(=O)N[C@@H](CO)C(=O)N[C@H](C(=O)N[C@H](Cc1ccccc1)C(N)=O)C(C)C [Compound 10b] ({Propanoyl(3-Pip(4-O-2-BnPh))}-VSV[dF]-NH2)", "pKi": 6.51}
{"compound": "C[C@H](NC(=O)[C@H](C)NC(=O)[C@H](CO)NC(=O)CCN1CCC(Oc2ccccc2Cc2ccccc2)CC1)C(=O)N[C@H](Cc1ccccc1)C(N)=O [Compound 8f] ({Propanoyl(3-Pip(4-O-2-BnPh))}-SAA[dF]-NH2)", "pKi": 6.39}
{"compound": "C[C@H](NC(=O)[C@H](C)NC(=O)[C@H](Cc1ccccc1)NC(=O)CCN1CCC(Oc2ccccc2Cc2ccccc2)CC1)C(=O)N[C@H](Cc1ccccc1)C(N)=O [Compound 8d] ({Propanoyl(3-Pip(4-O-2-BnPh))}-FAA[dF]-NH2)", "pKi": 5.88}
{"compound": "CC(C)[C@H](NC(=O)CCN1CCC(Oc2ccccc2Cc2ccccc2)CC1)C(=O)N[C@@H](CO)C(=O)N[C@@H](CC(=O)O)C(=O)N[C@H](Cc1ccccc1)C(N)=O [Compound 10i] ({Propanoyl(3-Pip(4-O-2-BnPh))}-VSD[dF]-NH2)", "pKi": 6.76}
{"compound": "C[C@H](NC(=O)[C@H](C)NC(=O)[C@H](CCCCN)NC(=O)CCN1CCC(Oc2ccccc2Cc2ccccc2)CC1)C(=O)N[C@H](Cc1ccccc1)C(N)=O [Compound 8i] ({Propanoyl(3-Pip(4-O-2-BnPh))}-KAA[dF]-NH2)", "pKi": 5.79}
{"compound": "C[C@H](NC(=O)[C@H](C)NC(=O)[C@H](Cc1ccc(O)cc1)NC(=O)CCN1CCC(Oc2ccccc2Cc2ccccc2)CC1)C(=O)N[C@H](Cc1ccccc1)C(N)=O [Compound 8e] ({Propanoyl(3-Pip(4-O-2-BnPh))}-YAA[dF]-NH2)", "pKi": 5.93}
{"compound": "C[C@H](NC(=O)[C@H](C)NC(=O)[C@H](CC(N)=O)NC(=O)CCN1CCC(Oc2ccccc2Cc2ccccc2)CC1)C(=O)N[C@H](Cc1ccccc1)C(N)=O [Compound 8g] ({Propanoyl(3-Pip(4-O-2-BnPh))}-NAA[dF]-NH2)", "pKi": 6.25}
{"compound": "C[C@H](NC(=O)[C@H](C)NC(=O)[C@H](CC(=O)O)NC(=O)CCN1CCC(Oc2ccccc2Cc2ccccc2)CC1)C(=O)N[C@H](Cc1ccccc1)C(N)=O [Compound 8j] ({Propanoyl(3-Pip(4-O-2-BnPh))}-DAA[dF]-NH2)", "pKi": 5.99}
